Values compiled from patent EP2970215B1.

tested-system: human GlyT1c transporter (Homo sapiens, UniProt P48067)
Construct: expressed in transfected cells; host or cells: CHO cells (recombinant; line hGlyT1c_5_CHO is named for the uptake assay)
Sequence (P48067 whole entry): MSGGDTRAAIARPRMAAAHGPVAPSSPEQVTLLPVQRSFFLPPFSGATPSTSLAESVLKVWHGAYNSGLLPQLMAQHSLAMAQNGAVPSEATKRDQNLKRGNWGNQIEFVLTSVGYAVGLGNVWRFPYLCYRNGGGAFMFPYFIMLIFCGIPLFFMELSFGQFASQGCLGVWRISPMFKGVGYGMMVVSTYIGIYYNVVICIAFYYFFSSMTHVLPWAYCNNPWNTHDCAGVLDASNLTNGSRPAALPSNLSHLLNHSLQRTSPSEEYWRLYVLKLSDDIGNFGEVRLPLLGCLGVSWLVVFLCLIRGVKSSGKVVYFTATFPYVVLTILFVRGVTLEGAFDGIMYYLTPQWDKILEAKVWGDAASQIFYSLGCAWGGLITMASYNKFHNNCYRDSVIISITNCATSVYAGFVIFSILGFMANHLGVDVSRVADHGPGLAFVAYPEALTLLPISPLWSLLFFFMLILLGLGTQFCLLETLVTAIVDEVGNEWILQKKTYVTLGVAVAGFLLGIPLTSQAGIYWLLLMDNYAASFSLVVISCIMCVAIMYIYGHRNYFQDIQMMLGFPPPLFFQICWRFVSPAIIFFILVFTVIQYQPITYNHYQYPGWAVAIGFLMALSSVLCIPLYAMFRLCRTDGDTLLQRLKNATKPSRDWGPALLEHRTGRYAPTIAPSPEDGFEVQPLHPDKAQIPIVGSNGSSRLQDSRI
experimental-details: Radioligand binding assay using recombinant CHO cell membranes expressing human GlyT1
measurement-setup: radioligand binding to human GlyT1c transporter-expressing membranes
reported-metric: Ki

// field: Ki; key: Cn1cnc(S(=O)(=O)N2C[C@@H](Nc3cccc(C(F)(F)F)n3)[C@H](c3ccc(F)cc3)C2)c1 (relative stereo) [Example 180] ; value = ≤ 1000 nM

Measured Ki, Cn1cnc(S(=O)(=O)N2C[C@@H](Nc3cc(C(F)(F)F)ncn3)[C@H](C3CCCCC3)C2)c1 (relative stereo) [Example 531] : ≤ 100 nM

Please fill in: Ki reported for Cn1cnc(S(=O)(=O)N2C[C@H](Nc3cc(-c4ccncc4)ccn3)[C@@H](c3ccc(F)cc3)C2)c1 [Example 751] = ≤ 100 nM

# Ki (compound: CCCCC(O)C(=O)N[C@H]1CN(S(=O)(=O)c2cn(C)cn2)C[C@@H]1c1ccc(F)cc1 (stereo partly drawn) [Example 673] ) is ≤ 1000 nM

Reported Ki ( Cn1cnc(S(=O)(=O)N2C[C@@H](NCc3ccccc3F)[C@H](c3ccc(F)cc3)C2)c1 (relative stereo) [Example 263] ) = ≤ 100 nM

# compound Cn1cnc(S(=O)(=O)N2C[C@@H](NC(=O)c3cccc(C(F)(F)F)c3Cl)[C@H](c3cccc(F)c3)C2)c1 (relative stereo) [Example 55] ; its Ki = ≤ 1000 nM

====

tested-system: human GlyT1c transporter (Homo sapiens, UniProt P48067)
Construct: expressed in transfected cells; host or cells: CHO cells (recombinant; line hGlyT1c_5_CHO is named for the uptake assay)
experimental-details: Radioligand binding assay using recombinant CHO cell membranes expressing human GlyT1
measurement-setup: radioligand binding to human GlyT1c transporter-expressing membranes
reported-metric: Ki

Please fill in: Ki reported for Cn1cnc(S(=O)(=O)N2C[C@@H](Nc3ccc(F)c(C(F)(F)F)c3)[C@H](c3ccccc3Cl)C2)c1 (relative stereo) = ≤ 1 µM

Ki measured on Cn1cnc(S(=O)(=O)N2C[C@@H](NC(=O)c3ccc(Cl)cc3Cl)[C@H](c3ccccc3)C2)c1 (relative stereo) = ≤ 1 µM

Input Cn1cnc(S(=O)(=O)N2C[C@@H](NCc3ccc(C(F)(F)F)cc3Cl)[C@H](c3ccccc3Cl)C2)c1 (relative stereo) . Output Ki: ≤ 0.1 µM

Per the records, this molecule ( Cn1cnc(S(=O)(=O)N2C[C@@H](C(=O)NCc3ccc(F)cc3)[C@H](c3ccc(F)cc3)C2)c1 (relative stereo) ) has Ki equal to ≤ 0.1 µM

// recorded Ki for O=C1CCc2cc(S(=O)(=O)N3CC(Nc4ccc(F)c(F)c4)C(c4ccccc4)C3)ccc2N1 (stereo not drawn) : ≤ 10 µM

Entry under test: `Cn1cnc(S(=O)(=O)N2C[C@H](Nc3cc(C(F)(F)F)ccn3)[C@@H](c3ccccc3)C2)c1` . Its Ki was ≤ 0.01 µM

====

tested-system: human GlyT1c transporter (Homo sapiens)
Construct: expressed in transfected cells; host or cells: CHO cells (recombinant; line hGlyT1c_5_CHO is named for the uptake assay)
experimental-details: Radioligand binding assay using recombinant CHO cell membranes expressing human GlyT1
measurement-setup: radioligand binding, recombinant CHO cell membranes expressing human GlyT1c
reported-metric: Ki

Case `Cn1cnc(S(=O)(=O)N2C[C@H](Nc3cc(C(F)(F)F)c(F)cn3)[C@@H](c3ccc(F)cc3)C2)c1` , human GlyT1c transporter (Homo sapiens), Ki recorded as ≤ 10 nM

Form field Ki for item Cn1cnc(S(=O)(=O)N2C[C@@H](Nc3ccc(F)c(C(F)(F)F)c3)[C@H](C3CCCCO3)C2)c1 (relative stereo) on human GlyT1c transporter (Homo sapiens): ≤ 100 nM

Observed Ki on human GlyT1c transporter (Homo sapiens), entry Cc1cc(N[C@@H]2CN(S(=O)(=O)c3cn(C)cn3)C[C@H]2C2CCCO2)ncc1F (relative stereo) , equals ≤ 10000 nM

human GlyT1c transporter (Homo sapiens) data for Cn1cnc(S(=O)(=O)N2CC3c4ccccc4CCC3(NCc3ccc(C(F)(F)F)cc3Cl)C2)c1 (centres unmarked) ; its Ki: ≤ 100 nM

Kindly note: human GlyT1c transporter (Homo sapiens), Cn1cnc(S(=O)(=O)N2C[C@@H](Nc3cccc(OC(F)(F)F)c3)[C@H](C3CCOC3)C2)c1 (relative stereo) , Ki value reported: ≤ 1000 nM
